- target_or_test_system: AHR (Homo sapiens)
- Construct: HepG2 cells transiently transfected with the pGudLuc6.1 plasmid were thawed and 25,000 cells were plated per well; endogenous in cells; host or cells: HepG2
- Sequence (P35869 11-848): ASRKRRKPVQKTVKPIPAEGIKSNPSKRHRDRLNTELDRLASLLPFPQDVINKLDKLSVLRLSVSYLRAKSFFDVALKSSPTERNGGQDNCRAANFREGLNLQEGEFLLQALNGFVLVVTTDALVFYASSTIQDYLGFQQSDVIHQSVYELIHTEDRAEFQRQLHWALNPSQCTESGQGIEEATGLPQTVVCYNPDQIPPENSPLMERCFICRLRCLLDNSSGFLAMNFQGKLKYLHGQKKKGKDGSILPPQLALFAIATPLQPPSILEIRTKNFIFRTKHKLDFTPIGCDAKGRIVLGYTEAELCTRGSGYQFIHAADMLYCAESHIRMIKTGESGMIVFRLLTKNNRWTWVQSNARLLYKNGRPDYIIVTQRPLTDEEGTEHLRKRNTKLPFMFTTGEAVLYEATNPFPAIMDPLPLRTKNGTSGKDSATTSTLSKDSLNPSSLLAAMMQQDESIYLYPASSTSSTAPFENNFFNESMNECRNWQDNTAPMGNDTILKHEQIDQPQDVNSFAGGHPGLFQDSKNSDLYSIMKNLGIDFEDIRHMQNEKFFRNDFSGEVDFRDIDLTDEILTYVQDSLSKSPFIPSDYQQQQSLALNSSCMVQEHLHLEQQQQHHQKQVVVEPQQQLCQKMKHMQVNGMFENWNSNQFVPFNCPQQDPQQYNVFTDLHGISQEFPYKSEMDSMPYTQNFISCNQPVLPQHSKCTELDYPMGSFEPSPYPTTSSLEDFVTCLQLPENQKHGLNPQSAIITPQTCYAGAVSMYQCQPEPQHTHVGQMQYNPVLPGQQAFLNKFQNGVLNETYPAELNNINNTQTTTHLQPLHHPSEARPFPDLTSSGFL
- protocol_text: AHR antagonist assay, HepG2 cells transiently transfected with pGudLuc6.1 luciferase plasmid, Example 9
- Type: cell-based
- assay_conditions: VAF347 fixed at 40 nM; luciferase activity 24 hours post-culture; read-out: AHR Antagonist Activity in the Presence of VAF347 EC50
- Procedure: Methods—HepG2 cells transiently transfected with the pGudLuc6.1 plasmid were thawed and 25,000 cells were plated per well and immediately treated the AHR agonist VAF347 (fixed at 40 nM) and/or the indicated AHR antagonists. Luciferase activity was measured 24 hours post-culture, corresponding to endogenous AHR antagonist activity (without VAF347, FIG. 14) or in the presence of VAF347 (FIG. 15). All synthesized compounds show equivalent AHR antagonist activity if not greater than SR1.
result_type: EC50 (nM)
Answer with a number only, understood to be in nM.

Record CC(C)n1cnc2c(NCCc3ccc(O)cc3)nc(-c3csc4ccccc34)nc21 [SR1, reference compound] has AHR (Homo sapiens) EC50 equal to 193

Summary: COCCC(C)c1cnc2c(NCCc3c[nH]c4ccccc34)nc(-c3cncc(F)c3)cn12 (single isomer, unassigned) [Compound (24) - Enantiomer Peak 2] , AHR (Homo sapiens), EC50 = 6

// EC50 (AHR (Homo sapiens)) for COCCCC(C)c1cnc2c(NCCc3c[nH]c4ccccc34)nc(-c3cncc(F)c3)cn12 (centres unmarked) = 9

Record CCOCCC(C)c1cnc2c(NCCc3c[nH]c4ccccc34)nc(-c3cncc(F)c3)cn12 (centres unmarked) / AHR (Homo sapiens), EC50 recorded as 30

Entry COCCC(C)c1cnc2c(NCCc3c[nH]c4ccccc34)nc(-c3cncc(F)c3)cn12 (single isomer, unassigned) [Compound (24) - Enantiomer Peak 1] , tested on AHR (Homo sapiens), has a reported EC50 of 12
